Cited source for all entries: the Immune Epitope Database (IEDB)

# test_system: HLA-A*02:01
# test_description: IEDB peptide-MHC binding, purified MHC/direct/fluorescence; filed as Kd, often an IC50 or EC50 that approximates it; bounds were set here for any values at or beyond the usual limits of such assays
# applied_conditions: source organism: Influenza A virus (A/duck/Vietnam/15/2003(H5N1))
pKd: −log10 of the molar value.
property_name: pKd

Given the entry SHEGEGIPL , report its measured pKd.
≤ 4.70

* * *

# test_system: HLA-A*03:01
# test_description: IEDB peptide-MHC binding, purified MHC/direct/fluorescence; filed as Kd, often an IC50 or EC50 that approximates it; bounds were set here for any values at or beyond the usual limits of such assays
# applied_conditions: source organism: Zaire ebolavirus
Give measured Kd for each item. Keep answers brief.

Please review the following examples before continuing.
>  <seq>
FLILPQAKK

>  <Kd>
≥ 20 µM

$$$$
>  <seq>
KLINTLFHA

>  <Kd>
≥ 20 µM

$$$$

Next, consider the following sequence.
Given the entry EAEKQLQQY , report its measured Kd.
≥ 20 µM
